Hi there, I'd appreciate the recorded inhibition for every entry that follows.
Molecular target: Prostaglandin G/H synthase 2 (Ovis aries)
Sequence (whole entry): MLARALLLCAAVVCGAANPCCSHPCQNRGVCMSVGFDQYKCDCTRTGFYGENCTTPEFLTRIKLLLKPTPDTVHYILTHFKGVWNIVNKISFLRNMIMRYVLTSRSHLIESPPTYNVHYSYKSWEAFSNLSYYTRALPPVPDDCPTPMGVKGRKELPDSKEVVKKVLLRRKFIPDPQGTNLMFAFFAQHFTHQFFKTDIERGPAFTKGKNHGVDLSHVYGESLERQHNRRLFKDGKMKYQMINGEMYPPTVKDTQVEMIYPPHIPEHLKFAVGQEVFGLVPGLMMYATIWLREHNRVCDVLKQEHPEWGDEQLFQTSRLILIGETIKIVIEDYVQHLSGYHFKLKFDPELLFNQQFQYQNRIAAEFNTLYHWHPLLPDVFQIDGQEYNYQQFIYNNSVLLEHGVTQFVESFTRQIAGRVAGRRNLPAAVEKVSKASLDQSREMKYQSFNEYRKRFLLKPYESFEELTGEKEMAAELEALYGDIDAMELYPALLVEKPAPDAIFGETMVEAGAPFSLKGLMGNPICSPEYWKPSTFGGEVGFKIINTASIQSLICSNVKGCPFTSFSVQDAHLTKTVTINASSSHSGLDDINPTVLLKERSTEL
Experiment: Inhibition of COX2 in sheep placental vesicle at 8 uM by enzyme immunoassay
One number for each entry, in %.

Field: example entries. Status: answers known.
Prompt line: What value of inhibition has been recorded for this entry: C=CCc1ccc(O)c(-c2ccc(OC)c(/C=C\C)c2)c1
Response line: 62.7

Prompt line: Name the recorded inhibition for C=CCc1ccc(OC(C)=O)c(-c2ccc(OC(C)=O)c(CC=C)c2)c1 .
Response line: 13.8

Prompt line: Item C=CCc1ccc(O)c(-c2ccc(OC)c(CC=C)c2)c1 [METHYLHONOKIOL] has what recorded inhibition?
Response line: 95.3

Record inhibition for all entries; do not skip any.
1. C=CCc1ccc(O)c(-c2ccc(O)c(CC=C)c2)c1 [HONOKIOL]
2. CCCc1ccc(OC)c(-c2ccc(OC)c(CCC)c2)c1

Response line:
[88.3, 49.4]

Hi, could you look up inhibition for each item in my list?
1. C=CCc1ccc(O)c(-c2ccc(O)c(/C=C/C)c2)c1
2. CCCc1ccc(O)c(-c2ccc(O)c(CCC)c2)c1
3. CCCc1ccc(O)c(-c2ccc(OC)c(CCC)c2)c1
4. C=CCc1ccc(OC)c(-c2ccc(OC)c(CC=C)c2)c1

Response line:
75.1
81.6
11.6
47.8

Parameter requested: inhibition. Apply to each item below.
1. C=CCc1ccc(OC(C)=O)c(-c2ccc(OC)c(CC=C)c2)c1
2. C=CCc1ccc(O)c(-c2ccc(OC)c(/C=C/C)c2)c1

Response line:
56.3
81.5

---

Target: Polyunsaturated fatty acid 5-lipoxygenase (Homo sapiens, UniProt P09917)
Sequence (P09917 whole entry): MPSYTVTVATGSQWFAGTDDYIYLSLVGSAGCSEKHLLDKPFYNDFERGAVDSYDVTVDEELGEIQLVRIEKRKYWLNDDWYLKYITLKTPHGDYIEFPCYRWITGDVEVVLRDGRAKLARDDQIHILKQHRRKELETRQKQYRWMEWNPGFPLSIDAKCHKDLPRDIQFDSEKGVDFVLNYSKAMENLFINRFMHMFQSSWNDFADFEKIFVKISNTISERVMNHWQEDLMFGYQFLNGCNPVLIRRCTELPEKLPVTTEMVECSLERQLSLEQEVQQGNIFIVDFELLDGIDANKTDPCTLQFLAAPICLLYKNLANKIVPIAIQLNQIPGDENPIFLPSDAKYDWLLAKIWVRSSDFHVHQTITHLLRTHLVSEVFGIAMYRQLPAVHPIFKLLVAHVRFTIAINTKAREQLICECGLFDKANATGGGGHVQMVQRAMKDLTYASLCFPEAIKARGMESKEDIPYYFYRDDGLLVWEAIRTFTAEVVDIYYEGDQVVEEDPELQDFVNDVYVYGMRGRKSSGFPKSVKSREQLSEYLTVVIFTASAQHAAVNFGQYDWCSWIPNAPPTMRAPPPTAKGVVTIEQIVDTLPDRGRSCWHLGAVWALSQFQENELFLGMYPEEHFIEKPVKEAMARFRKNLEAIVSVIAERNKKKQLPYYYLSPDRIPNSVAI
Test: Inhibition of 5LOX-mediated LTB4 formation in stimulated human polymorphonuclear leukocytes
Details: read-out: IC50
For each entry below, report its IC50 value.
One number for each entry, in nM.

Working through the 7 compounds below one at a time, give IC50 for each.
1. C=CCc1ccc(OC(C)=O)c(-c2ccc(OC(C)=O)c(CC=C)c2)c1
2. C=CCc1ccc(O)c(-c2ccc(OC)c(CC=C)c2)c1
3. C=CCc1ccc(OC(C)=O)c(-c2ccc(OC)c(CC=C)c2)c1
4. C=CCc1ccc(O)c(-c2ccc(O)c(/C=C/C)c2)c1
5. CCCc1ccc(O)c(-c2ccc(OC)c(CCC)c2)c1
6. C=CCc1ccc(O)c(-c2ccc(O)c(CC=C)c2)c1
7. C=CCc1ccc(OC)c(-c2ccc(OC)c(CC=C)c2)c1

Response line:
1: 4500; 2: 1500; 3: 2200; 4: 1000; 5: 1400; 6: 4200; 7: 15000

Hi team, please reply with IC50 for each item in this list.
1. C=CCc1ccc(O)c(-c2ccc(OC)c(/C=C\C)c2)c1
2. CCCc1ccc(O)c(-c2ccc(O)c(CCC)c2)c1
3. C=CCc1ccc(O)c(-c2ccc(OC)c(/C=C/C)c2)c1

Response line:
[1100, 1700, 2100]

---

Target: Prostaglandin G/H synthase 1 (Ovis aries)
Assay: Inhibition of COX1 in ram seminal vesicle at 8 uM by enzyme immunoassay
Format: tissue-based
assayEndpoint: inhibition (%)
Give bare numbers, in %.

Reference set, count: 5
Prompt line: Any idea what inhibition was measured for C=CCc1ccc(O)c(-c2ccc(O)c(CC=C)c2)c1 ?
Response line: 91

Prompt line: Looking for the measured inhibition of C=CCc1ccc(OC)c(-c2ccc(OC)c(CC=C)c2)c1 , can you help?
Response line: 45.1

Prompt line: Need inhibition of C=CCc1ccc(OC(C)=O)c(-c2ccc(OC(C)=O)c(CC=C)c2)c1 , thanks.
Response line: 6.8

Prompt line: State the recorded inhibition for this entry: C=CCc1ccc(O)c(-c2ccc(OC)c(/C=C\C)c2)c1
Response line: 68.6

Prompt line: // lookup inhibition for C=CCc1ccc(O)c(-c2ccc(O)c(/C=C/C)c2)c1
Response line: 84.8

Your task in this section: give inhibition for each listed record.
1. C=CCc1ccc(OC(C)=O)c(-c2ccc(OC)c(CC=C)c2)c1
2. C=CCc1ccc(O)c(-c2ccc(OC)c(/C=C/C)c2)c1
3. CCCc1ccc(OC)c(-c2ccc(OC)c(CCC)c2)c1
4. CCCc1ccc(O)c(-c2ccc(O)c(CCC)c2)c1

Response line:
1. 18
2. 80.5
3. 27.3
4. 89.6

I have 2 compounds here; please give me inhibition for each one.
1. C=CCc1ccc(O)c(-c2ccc(OC)c(CC=C)c2)c1
2. CCCc1ccc(O)c(-c2ccc(OC)c(CCC)c2)c1

Response line:
[90.8, 56.5]

---

Target: Prostaglandin G/H synthase 2 (Ovis aries, UniProt P79208)
Sequence (P79208 whole entry): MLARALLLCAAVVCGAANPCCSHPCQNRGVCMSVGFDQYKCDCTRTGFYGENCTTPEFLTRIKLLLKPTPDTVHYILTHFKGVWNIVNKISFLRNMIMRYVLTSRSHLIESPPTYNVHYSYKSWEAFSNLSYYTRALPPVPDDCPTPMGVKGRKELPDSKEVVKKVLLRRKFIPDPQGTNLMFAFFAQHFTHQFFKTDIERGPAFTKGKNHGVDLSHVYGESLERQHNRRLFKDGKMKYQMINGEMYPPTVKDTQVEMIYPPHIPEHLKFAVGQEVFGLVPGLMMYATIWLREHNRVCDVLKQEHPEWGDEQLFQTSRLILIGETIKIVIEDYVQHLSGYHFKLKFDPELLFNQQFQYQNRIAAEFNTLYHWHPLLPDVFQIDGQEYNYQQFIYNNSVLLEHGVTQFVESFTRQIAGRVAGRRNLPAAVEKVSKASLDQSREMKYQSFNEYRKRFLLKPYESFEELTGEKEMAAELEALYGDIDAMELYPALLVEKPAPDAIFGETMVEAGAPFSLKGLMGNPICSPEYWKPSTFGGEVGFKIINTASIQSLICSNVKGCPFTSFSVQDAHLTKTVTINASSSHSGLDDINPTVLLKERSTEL
Assay: Inhibition of COX2 in sheep placental vesicle by enzyme immunoassay
Details: read-out: IC50
Sorting guide: entries reporting IC50 beneath 2 µM go in the true pile, the rest go in the false pile.

# count of solved cases: 2
Prompt line: Bench note: check whether C=CCc1ccc(OC)c(-c2ccc(OC)c(CC=C)c2)c1 shows IC50 below 2 µM
Response line: false

Prompt line: Does CCCc1ccc(OC)c(-c2ccc(OC)c(CCC)c2)c1 have IC50 strictly under 2 µM?
Response line: false

New cases:
Prompt line: State whether 2 µM exceeds IC50 recorded for C=CCc1ccc(O)c(-c2ccc(O)c(/C=C/C)c2)c1 .
Response line: false

Prompt line: Is IC50 strictly under 2 µM for the entry C=CCc1ccc(OC(C)=O)c(-c2ccc(OC)c(CC=C)c2)c1 ?
Response line: false

Prompt line: Is the reported IC50 for C=CCc1ccc(O)c(-c2ccc(O)c(CC=C)c2)c1 strictly below 2 µM?
Response line: false

Prompt line: Hello, is IC50 of the following compound strictly smaller than 2 µM? CCCc1ccc(O)c(-c2ccc(O)c(CCC)c2)c1
Response line: false

Prompt line: Does C=CCc1ccc(O)c(-c2ccc(OC)c(/C=C/C)c2)c1 have IC50 strictly under 2 µM?
Response line: true

Prompt line: Does the reported IC50 of the following compound sit strictly below 2 µM? C=CCc1ccc(O)c(-c2ccc(OC)c(CC=C)c2)c1
Response line: true

Prompt line: Identify whether the compound C=CCc1ccc(O)c(-c2ccc(OC)c(/C=C\C)c2)c1 records IC50 below 2 µM.
Response line: true
